pSTAT5 ratio YT CD25/YT, dilution factor 8, lower table for assorted binders
Target: T1, human high affinity trimeric IL-2 receptor (CD25/CD122/CD132) (human, UniProt P01589 22-272; P14784 27-551; P31785 23-369)
T1 sequence 1: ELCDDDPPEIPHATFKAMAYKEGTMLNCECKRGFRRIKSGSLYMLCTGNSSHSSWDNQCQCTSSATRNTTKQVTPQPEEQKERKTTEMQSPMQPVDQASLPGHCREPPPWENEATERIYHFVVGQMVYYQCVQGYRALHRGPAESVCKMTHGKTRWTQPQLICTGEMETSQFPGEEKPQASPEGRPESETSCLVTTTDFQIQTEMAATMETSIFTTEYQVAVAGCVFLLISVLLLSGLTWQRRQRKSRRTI
T1 sequence 2: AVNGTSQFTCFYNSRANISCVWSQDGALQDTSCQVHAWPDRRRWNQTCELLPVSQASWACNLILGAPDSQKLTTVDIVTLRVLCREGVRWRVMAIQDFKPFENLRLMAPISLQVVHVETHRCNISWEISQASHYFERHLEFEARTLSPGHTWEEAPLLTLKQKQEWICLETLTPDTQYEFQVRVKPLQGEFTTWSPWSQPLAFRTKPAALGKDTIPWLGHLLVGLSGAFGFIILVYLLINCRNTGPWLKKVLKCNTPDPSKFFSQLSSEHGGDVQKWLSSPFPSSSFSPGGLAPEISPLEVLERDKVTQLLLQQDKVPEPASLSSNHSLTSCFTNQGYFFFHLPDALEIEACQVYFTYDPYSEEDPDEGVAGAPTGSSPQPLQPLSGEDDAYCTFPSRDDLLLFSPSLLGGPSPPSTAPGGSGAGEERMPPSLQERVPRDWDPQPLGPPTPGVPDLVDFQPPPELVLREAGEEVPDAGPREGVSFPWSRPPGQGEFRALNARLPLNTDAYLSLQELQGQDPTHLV
T1 sequence 3: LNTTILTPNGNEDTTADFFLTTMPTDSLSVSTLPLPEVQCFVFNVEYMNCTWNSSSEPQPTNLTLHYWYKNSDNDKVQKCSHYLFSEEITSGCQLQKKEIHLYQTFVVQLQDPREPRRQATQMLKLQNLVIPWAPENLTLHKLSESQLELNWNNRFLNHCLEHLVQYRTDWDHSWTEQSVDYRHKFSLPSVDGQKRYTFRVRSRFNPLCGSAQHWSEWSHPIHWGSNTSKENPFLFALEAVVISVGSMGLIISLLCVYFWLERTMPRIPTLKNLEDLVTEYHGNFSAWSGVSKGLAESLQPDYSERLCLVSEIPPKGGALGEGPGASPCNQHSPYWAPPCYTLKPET
Assay: cell-based or functional assay
Number only, please.

Example binders with recorded pSTAT5 ratio YT CD25/YT, dilution factor 8, lower table:
Give the measured pSTAT5 ratio YT CD25/YT, dilution factor 8, lower table of hIL2 mutein REH (L18R, Q22E, Q126H) (ligand) APTSSSTKKTQLQLEHLRLDLEMILNGINNYKNPKLTRMLTFKFYMPKKATELKHLQCLEEELKPLEEVLNLAQSKNFHLRPRDLISNINVIVLELKGSETTFMCEYADETATIVEFLNRWITFCHSIISTLT . 1

Please give the result for NEH (ligand) cytokine: APTSSSTKKTQLQLEHLNLDLEMILNGINNYKNPKLTRMLTFKFYMPKKATELKHLQCLEEELKPLEEVLNLAQSKNFHLRPRDLISNINVIVLELKGSETTFMCEYADETATIVEFLNRWITFCHSIISTLT too. 1.8

Please give the result for RGH (ligand) cytokine: APTSSSTKKTQLQLEHLRLDLGMILNGINNYKNPKLTRMLTFKFYMPKKATELKHLQCLEEELKPLEEVLNLAQSKNFHLRPRDLISNINVIVLELKGSETTFMCEYADETATIVEFLNRWITFCHSIISTLT too. 1.1

Please give the result for RKH (ligand) cytokine: APTSSSTKKTQLQLEHLRLDLKMILNGINNYKNPKLTRMLTFKFYMPKKATELKHLQCLEEELKPLEEVLNLAQSKNFHLRPRDLISNINVIVLELKGSETTFMCEYADETATIVEFLNRWITFCHSIISTLT too. 1.8

Please give the result for RYH (ligand) cytokine: APTSSSTKKTQLQLEHLRLDLYMILNGINNYKNPKLTRMLTFKFYMPKKATELKHLQCLEEELKPLEEVLNLAQSKNFHLRPRDLISNINVIVLELKGSETTFMCEYADETATIVEFLNRWITFCHSIISTLT too. 3.4

Please give the result for RAH (ligand) cytokine: APTSSSTKKTQLQLEHLRLDLAMILNGINNYKNPKLTRMLTFKFYMPKKATELKHLQCLEEELKPLEEVLNLAQSKNFHLRPRDLISNINVIVLELKGSETTFMCEYADETATIVEFLNRWITFCHSIISTLT too. 0.8

Please give the result for HEH (ligand) cytokine: APTSSSTKKTQLQLEHLHLDLEMILNGINNYKNPKLTRMLTFKFYMPKKATELKHLQCLEEELKPLEEVLNLAQSKNFHLRPRDLISNINVIVLELKGSETTFMCEYADETATIVEFLNRWITFCHSIISTLT too. 1.8

Please give the result for RLH (ligand) cytokine: APTSSSTKKTQLQLEHLRLDLLMILNGINNYKNPKLTRMLTFKFYMPKKATELKHLQCLEEELKPLEEVLNLAQSKNFHLRPRDLISNINVIVLELKGSETTFMCEYADETATIVEFLNRWITFCHSIISTLT too. 1.5

Others:
Give the measured pSTAT5 ratio YT CD25/YT, dilution factor 8, lower table of RTH (ligand) cytokine: APTSSSTKKTQLQLEHLRLDLTMILNGINNYKNPKLTRMLTFKFYMPKKATELKHLQCLEEELKPLEEVLNLAQSKNFHLRPRDLISNINVIVLELKGSETTFMCEYADETATIVEFLNRWITFCHSIISTLT . 2.6

Please give the result for RRH (ligand) cytokine: APTSSSTKKTQLQLEHLRLDLRMILNGINNYKNPKLTRMLTFKFYMPKKATELKHLQCLEEELKPLEEVLNLAQSKNFHLRPRDLISNINVIVLELKGSETTFMCEYADETATIVEFLNRWITFCHSIISTLT too. 3.8

Please give the result for TEH (ligand) cytokine: APTSSSTKKTQLQLEHLTLDLEMILNGINNYKNPKLTRMLTFKFYMPKKATELKHLQCLEEELKPLEEVLNLAQSKNFHLRPRDLISNINVIVLELKGSETTFMCEYADETATIVEFLNRWITFCHSIISTLT too. 0.9

Please give the result for RWH (ligand) cytokine: APTSSSTKKTQLQLEHLRLDLWMILNGINNYKNPKLTRMLTFKFYMPKKATELKHLQCLEEELKPLEEVLNLAQSKNFHLRPRDLISNINVIVLELKGSETTFMCEYADETATIVEFLNRWITFCHSIISTLT too. 1.2

Please give the result for RDH (ligand) cytokine: APTSSSTKKTQLQLEHLRLDLDMILNGINNYKNPKLTRMLTFKFYMPKKATELKHLQCLEEELKPLEEVLNLAQSKNFHLRPRDLISNINVIVLELKGSETTFMCEYADETATIVEFLNRWITFCHSIISTLT too. 2.1
